Cited source: patent US20150368248A1

experimental_endpoint: melting point

- NC1CCC(Nc2nc(NCc3ccc(-c4ccccc4O)nc3)c3ncn(C4CCCC4)c3n2)CC1 (stereo not drawn): 202 to 203 °C
- CC(C)(O)CNc1nc(NCc2ccc(-c3ccco3)nc2)c2ncn(C3CCCC3)c2n1: 128 to 129 °C
- NC1CCC(Nc2nc(NCc3ccc(Br)nc3)c3ncn(C4CCCC4)c3n2)CC1 (stereo not drawn): 114 to 116 °C
- NC1CCC(Nc2nc(NCc3ccc(-c4cccc(F)c4)cc3)c3ncn(C4CCCC4)c3n2)CC1 (stereo not drawn): 146 to 148 °C
- Nc1ccccc1-c1ccc(CNc2nc(NC3CCC(N)CC3)nc3c2ncn3C2CCCC2)cc1 (stereo not drawn): 168 to 170 °C
- CC(C)(O)CNc1nc(NCc2ccc(Br)cc2)c2ncn(C3CCCC3)c2n1: 108 to 110 °C
- Clc1nc(NCc2ccc(Br)nc2)c2ncn(C3CCCC3)c2n1: 178 to 179 °C
- NC1CCC(Nc2nc(NCc3ccc(-c4cccs4)nc3)c3ncn(C4CCCC4)c3n2)CC1 (stereo not drawn): 151 to 153 °C
- COc1ccccc1-c1ccc(CNc2nc(NC3CCC(N)CC3)nc3c2ncn3C2CCCC2)cn1 (stereo not drawn): 184 to 186 °C
- NC1CCC(Nc2nc(NCc3ccc(-c4ccccc4O)cc3)c3ncn(C4CCCC4)c3n2)CC1 (stereo not drawn): 168 to 170 °C
- COc1ccccc1-c1ccc(CNc2nc(NC3CCC(N)CC3)nc3c2ncn3C2CCCC2)cc1 (stereo not drawn): 178 to 180 °C
- NC1CCC(Nc2nc(NCc3ccc(-c4ccoc4)nc3)c3ncn(C4CCCC4)c3n2)CC1 (stereo not drawn): 165 to 167 °C
- CC(C)(O)CNc1nc(NCc2ccc(-c3ccco3)cc2)c2ncn(C3CCCC3)c2n1: 121 to 123 °C
- NC1CCC(Nc2nc(NCc3ccc(-c4ccco4)cc3)c3ncn(C4CCCC4)c3n2)CC1 (stereo not drawn): 157 to 159 °C
- Clc1nc(NCc2ccc(-c3cccs3)nc2)c2ncn(C3CCCC3)c2n1: 111 to 114 °C
- OC1CCC(Nc2nc(NCc3ccc(-c4ccco4)nc3)c3ncn(C4CCCC4)c3n2)CC1 (stereo not drawn): 164 to 166 °C
- Nc1ccccc1-c1ccc(CNc2nc(NC3CCC(N)CC3)nc3c2ncn3C2CCCC2)cn1 (stereo not drawn): 173 to 175 °C
- NC1CCC(Nc2nc(NCc3ccc(-n4cccn4)cc3)c3ncn(C4CCCC4)c3n2)CC1 (stereo not drawn): 186 to 187 °C
